- Test system: SK-MEL-28
- PROTOCOL NOTES: Compound tested for cytotoxic Activity against SK-Mel-28 cell line from melanoma
- Type: functional, cell-based
- ASSAY SETUP: Homo sapiens
Quick list: IC50 per entry.
ENDPOINT: IC50 (µM)

O=C(OCCS(=O)(=O)c1ccccc1)N1c2ccccc2[C@@]23O[C@]24CCC[C@@H]3C#C/C=C\C#C[C@H]14: 63
C[C@@H](COC(=O)N1c2ccccc2[C@@]23O[C@]24CCC[C@@H]3C#C/C=C\C#C[C@H]14)S(=O)(=O)c1ccccc1: 50

* * *

- Tested on: CHO
- PROTOCOL NOTES: Compound tested for cytotoxic Activity against CHO cell line
- Assay type: cell-based
- ASSAY SETUP: Cricetulus griseus
ENDPOINT: IC50 (µM)

O=C(OCCS(=O)(=O)c1ccccc1)N1c2ccccc2[C@@]23O[C@]24CCC[C@@H]3C#C/C=C\C#C[C@H]14: 6.3
